Tested on: SF-268 CNS
Test: NCI-60 one-dose screen, 48 h
Conditions: 10 µM unless noted
Compounds without any hit were thinned out: in the full panel of roughly 83,000, 20% have a hit. Calls of active or inactive are those of the source. The calls were made as follows: active = growth percent below 10; inactive = the rest.
Labels: True (active), False (inactive)

INSERT INTO assay_data (compound, group_label) VALUES
  ('CC(=O)OCC1OC(OC2C(COC(C)=O)OC(n3cc(COc4ccc5ccc(=O)oc5c4)nn3)C(OC(C)=O)C2OC(C)=O)C(OC(C)=O)C(OC(C)=O)C1OC(C)=O (stereo not given)', 'False'),
  ('Cc1ccc([C@H]2C(C(=O)c3ccc(Cl)cc3)C3(N[C@@H]2c2ccccc2)C(=O)Nc2ccccc23)cc1 (stereo not given in full)', 'False'),
  ('O=c1[nH]n(C(=S)N/N=C/c2ccccc2Cl)c(=O)c2ccccc12', 'False'),
  ('CCCCSc1nc(Nc2ccc(S(N)(=O)=O)cc2)c(C#N)c(-c2ccc(Cl)cc2)n1', 'False'),
  ('Cc1ccc(-n2c(-c3cc4ccccc4nc3Cl)noc2=O)cc1', 'False'),
  ('COc1cc2c(c(OC)c1OC)C(=O)CC(c1cccc(NC(=O)c3cc([N+](=O)[O-])ccc3Cl)c1)O2 (stereo not given)', 'False'),
  ('N#Cc1c(-c2ccc(Cl)cc2)nc2n[nH]c(-c3ccc(Cl)cc3)c2c1-c1cccs1', 'False'),
  ('CCOc1ccc(-c2c(C#N)c(-c3ccc(Cl)cc3)nc3n[nH]c(-c4ccc(Cl)cc4)c23)cc1OC', 'False'),
  ('COc1cc(C2CC(c3cc(OC)c(OC)c(OC)c3)=Nc3c(N)nc(N)nc3N2)ccc1Oc1nc(NCCO)nc(N2CCOCC2)n1 (stereo not given)', 'False'),
  ('COc1ccc(C2=NN(c3ccccc3)C(c3ccc(OCc4ccccc4)c(OC)c3)C2)cc1OC (stereo not given)', 'False'),
  ('Clc1cccc(Cl)c1/C=C/c1cc(/C=C/c2ccc(Br)cc2)c2ccccc2n1', 'False'),
  ('CNC(=O)c1cc(Oc2ccc3nc(NC(=O)Nc4cccc(OC(F)(F)F)c4)sc3c2)ccn1', 'False'),
  ('CCCCCCCCOc1cccc(S(=O)(=O)Nc2ccc(C)cc2C(=O)O)c1', 'False'),
  ('COc1ccc2[nH]cc(-c3nnc(N)nc3-c3cn(C)c4ncc(Br)cc34)c2c1', 'False'),
  ('CCCCn1c(O)c(N=Nc2nc(-c3cc4ccccc4oc3=O)cs2)c2cc(Br)ccc21', 'False'),
  ('C#CCOc1cc(N(CC)CC)ccc1C(C(=O)NC(C)(C)C)N(C(=O)C1CCc2cc(F)ccc2O1)c1ccc(Br)cc1 (stereo not given)', 'False'),
  ('COc1ccc(C(=O)/C=C/c2cccc(Br)c2)cc1S(N)(=O)=O', 'True'),
  ('Cn1cc(NC(=O)c2cc(NC(=O)c3ccc(/C=C/c4ccccc4)cc3)cn2C)cc1C(=O)NCCCN1CCOCC1', 'False'),
  ('C=C1CC[C@@H]2[C@]3(C)COC(c4cn[nH]c4-c4ccccc4)O[C@@H]3CC[C@@]2(C)[C@@H]1C/C=C1/C(=O)OCC1O (stereo not given in full)', 'False'),
  ('C/C(=N\N=C1/C(=O)Nc2ccc(Cl)cc21)c1ccc2c(c1)Nc1ccccc1S2', 'False');
